# Tested on: Escherichia coli TOP10
# assay_info: shrunken log2 fold change of peptide-encoding DNA abundance (4.5 h post-induction vs induction); higher = less antimicrobial activity (less host growth inhibition)
# assay_setup: time post-induction: 4.5 h; library: site-saturation at positions 5, 18, 19, 20
reported_endpoint: shrunken log2 fold change
Reply with the value as a number alone.

Recorded shrunken log2 fold change, per entry:
sequence=RRIRLRPPRLPRPRPRPVCPPRP value=0.149
sequence=RRIRKRPPRLPRPRPRPWRCPRP value=-0.0463
sequence=RRIRVRPPRLPRPRPRPEVTPRP value=-0.0717
sequence=RRIRFRPPRLPRPRPRPICQPRP value=-0.182
sequence=RRIRHRPPRLPRPRPRPKICPRP value=0.0596

# input Using the record for RRIRERPPRLPRPRPRPVFCPRP , report its shrunken log2 fold change.
# output -0.0447

# input Here is the next sequence: RRIRGRPPRLPRPRPRPPMRPRP
# output 1.39

# input Here is the next sequence: RRIRHRPPRLPRPRPRPWRIPRP
# output -0.0502

# input Here is the next sequence: RRIRSRPPRLPRPRPRPYFQPRP
# output -0.951

# input Here is the next sequence: RRIRCRPPRLPRPRPRPNMAPRP
# output -0.614

###

# Tested on: Escherichia coli TOP10
# assay_info: shrunken log2 fold change of peptide-encoding DNA abundance (4.5 h post-induction vs induction); higher = less antimicrobial activity (less host growth inhibition)
# assay_setup: time post-induction: 4.5 h; library: site-saturation at positions 5, 18, 19, 20
# shrunken log2 fold change values compiled below
Reply with the value as a number alone.

Recorded shrunken log2 fold change, per entry:
sequence=RRIRPRPPRLPRPRPRPMSFPRP reported_endpoint="shrunken log2 fold change" value=-0.0289
sequence=RRIRIRPPRLPRPRPRPRTEPRP reported_endpoint="shrunken log2 fold change" value=0.0225
sequence=RRIRDRPPRLPRPRPRPTWIPRP reported_endpoint="shrunken log2 fold change" value=-0.0164
sequence=RRIRHRPPRLPRPRPRPNRHPRP reported_endpoint="shrunken log2 fold change" value=-0.281
sequence=RRIRCRPPRLPRPRPRPRYWPRP reported_endpoint="shrunken log2 fold change" value=-0.0818

# input So what shrunken log2 fold change did RRIRDRPPRLPRPRPRPHKWPRP get with Escherichia coli TOP10?
# output -0.202

# input Here is the next sequence: RRIRNRPPRLPRPRPRPTTPPRP
# output 0.152

###

# System: Escherichia coli TOP10;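 also: peptides expressed intracellularly from a pBAD plasmid library in pooled LB shake-flask culture, induced with 0.3% L-arabinose, DNA abundance read by NGS, three biological replicates, DESeq2 with apeglm shrinkage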
# assay_info: shrunken log2 fold change of peptide-encoding DNA abundance (4.5 h post-induction vs induction); higher = less antimicrobial activity (less host growth inhibition)
# assay_setup: time post-induction: 4.5 h; library: site-saturation at positions 5, 18, 19, 20
Classification field: rule met = shrunken log2 fold change at or over -0.07; rule not met = shrunken log2 fold change under -0.07.

sequence=RRIRRRPPRLPRPRPRPPELPRP class_name="rule met"
sequence=RRIRDRPPRLPRPRPRPLTGPRP class_name="rule met"
sequence=RRIRKRPPRLPRPRPRPGIKPRP class_name="rule met"
sequence=RRIRPRPPRLPRPRPRPPGRPRP class_name="rule met"
sequence=RRIRARPPRLPRPRPRPDLTPRP class_name="rule met"

# input Entry RRIRIRPPRLPRPRPRPIYQPRP : is its shrunken log2 fold change no less than -0.07?
# output rule met

# input Here is the next sequence: RRIRHRPPRLPRPRPRPRRWPRP
# output rule met

# input Here is the next sequence: RRIRPRPPRLPRPRPRPHEKPRP
# output rule met

# input Here is the next sequence: RRIRVRPPRLPRPRPRPWMLPRP
# output rule not met

# input Here is the next sequence: RRIRTRPPRLPRPRPRPFWLPRP
# output rule met

Data origin, for the record: the supplement of paper PMC9112550
